Test system: Serratia marcescens expressing IMP-1 (CL5741)
Assay type: cell-based
Details: with imipenem 1 μg/ml; 95% inhibition of bacterial growth
READOUT_NAME: CL5741 S. marcescens MITC95 IMP (µM)
A number alone suffices; assume µM.

See these solved cases before continuing.
# MOLECULE, TESTED_TARGET, CL5741 S. marcescens MITC95 IMP, µM
data = [
    ("NC[C@@H](O)CNS(=O)(=O)c1ccc(N2CCOC(CO)C2)c(-c2nn[nH]n2)c1S(N)(=O)=O (stereo partly shown)", "Serratia marcescens expressing IMP-1 (CL5741)", 0.78),
    ("NC[C@@H](O)CNS(=O)(=O)c1ccc(N2CCC(CCn3cccn3)CC2)c(-c2nn[nH]n2)c1S(N)(=O)=O", "Serratia marcescens expressing IMP-1 (CL5741)", 3.13),
    ("COC1(CO)CCN(c2ccc(S(=O)(=O)NC[C@H](O)CN)c(S(N)(=O)=O)c2-c2nn[nH]n2)CC1", "Serratia marcescens expressing IMP-1 (CL5741)", 6.25),
]

// fetch Serratia marcescens expressing IMP-1 (CL5741) CL5741 S. marcescens MITC95 IMP for `NS(=O)(=O)c1c(S(=O)(=O)N[C@@H]2CCNC2)ccc(N2CC[C@@H](CO)C2)c1-c1nnn[nH]1`
3.91

// fetch Serratia marcescens expressing IMP-1 (CL5741) CL5741 S. marcescens MITC95 IMP for NC1CCCCN(c2ccc(S(=O)(=O)C3CNC3)c(S(N)(=O)=O)c2-c2nnn[nH]2)C1 (stereo not shown)
3.13

// fetch Serratia marcescens expressing IMP-1 (CL5741) CL5741 S. marcescens MITC95 IMP for `NCC1CCN(c2ccc(S(=O)(=O)NC[C@@H](O)CN)c(S(N)(=O)=O)c2-c2nnn[nH]2)CC1`
0.78

// fetch Serratia marcescens expressing IMP-1 (CL5741) CL5741 S. marcescens MITC95 IMP for `NC[C@@H](O)CNS(=O)(=O)c1ccc(N[C@@H]2CCC[C@H]2N)c(-c2nn[nH]n2)c1S(N)(=O)=O`
6.25
